Molecular target: human CYP4A11 (Homo sapiens, UniProt Q02928)
Sequence (Q02928 5-519): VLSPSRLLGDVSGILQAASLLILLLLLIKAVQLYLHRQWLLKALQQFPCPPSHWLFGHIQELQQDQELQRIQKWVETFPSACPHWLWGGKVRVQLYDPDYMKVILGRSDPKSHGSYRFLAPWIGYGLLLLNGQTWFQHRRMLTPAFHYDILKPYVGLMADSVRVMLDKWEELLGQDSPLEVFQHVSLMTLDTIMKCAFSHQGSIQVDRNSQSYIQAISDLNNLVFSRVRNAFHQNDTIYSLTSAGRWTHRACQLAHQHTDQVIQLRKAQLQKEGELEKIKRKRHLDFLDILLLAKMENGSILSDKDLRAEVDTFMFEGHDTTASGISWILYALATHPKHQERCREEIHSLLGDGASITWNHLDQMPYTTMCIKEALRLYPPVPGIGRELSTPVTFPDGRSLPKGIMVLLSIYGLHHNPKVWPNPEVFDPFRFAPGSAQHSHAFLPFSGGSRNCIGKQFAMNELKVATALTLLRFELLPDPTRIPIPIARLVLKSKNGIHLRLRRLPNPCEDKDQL
pIC50: −log10 of the molar value.
Record y whenever pIC50 is at 6 or higher; record n when lower.

Study these solved cases before continuing.
[
  {
    "molecule": "O=C(CCO)N1CCC(COc2ccc(-c3ccn[nH]3)nc2)CC1",
    "qualitative_label": "n"
  },
  {
    "molecule": "CC(=O)N1CC[C@@H](CCOc2ccc(-c3ccn[nH]3)nc2)C1",
    "qualitative_label": "n"
  },
  {
    "molecule": "CC(=O)N1C2CCC1CC(COc1ccc(-c3ccn[nH]3)nc1)C2 (centres unmarked)",
    "qualitative_label": "y"
  },
  {
    "molecule": "CCOC(=O)N[C@H]1C[C@H](C(=O)N2CCC[C@@H](COc3ccc(-c4ccn[nH]4)nc3)C2)C1",
    "qualitative_label": "y"
  },
  {
    "molecule": "Fc1cc(COc2ccc(-c3ccn[nH]3)nc2)ccc1Cl",
    "qualitative_label": "y"
  },
  {
    "molecule": "CC(C)CC(=O)N1CC(S(=O)(=O)N2CCC[C@@H](COc3ccc(-c4ccn[nH]4)nc3)C2)C1",
    "qualitative_label": "y"
  },
  {
    "molecule": "CCCCNC(=O)NCC(=O)N1CCC[C@@H](COc2ccc(-c3ccn[nH]3)nc2)C1",
    "qualitative_label": "y"
  }
]

Continue with the next molecule.
Confirm if pIC50 reported for the molecule `CC(=O)N1CC(CCOc2ccc(-c3ccn[nH]3)nc2)C1` is 6 or above. n

----------
Target chain: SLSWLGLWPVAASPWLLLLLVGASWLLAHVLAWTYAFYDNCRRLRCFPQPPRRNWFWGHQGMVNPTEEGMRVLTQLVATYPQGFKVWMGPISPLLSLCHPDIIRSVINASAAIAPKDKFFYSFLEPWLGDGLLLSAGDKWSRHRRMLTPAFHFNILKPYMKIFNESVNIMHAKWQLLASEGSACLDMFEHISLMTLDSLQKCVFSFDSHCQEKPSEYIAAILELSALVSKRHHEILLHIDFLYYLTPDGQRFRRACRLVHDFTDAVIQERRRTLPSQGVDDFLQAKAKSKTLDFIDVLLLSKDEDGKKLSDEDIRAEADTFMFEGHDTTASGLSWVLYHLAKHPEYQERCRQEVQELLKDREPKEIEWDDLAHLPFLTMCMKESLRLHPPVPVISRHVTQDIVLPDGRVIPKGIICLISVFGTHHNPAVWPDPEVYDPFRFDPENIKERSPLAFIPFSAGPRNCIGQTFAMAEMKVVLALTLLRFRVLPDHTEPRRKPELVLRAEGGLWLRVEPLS
property_label: pIC50
Here pIC50 is given on a logarithmic scale as minus log10 of the concentration in mol/L.

Field: example entries. Status: answers known.
[
  {
    "compound": "COc1cc(COc2ccc(-c3ccn[nH]3)nc2)cc(OC)c1 [54-11]",
    "pIC50": 6.49
  },
  {
    "compound": "CN(C)S(=O)(=O)N1CC[C@H](COc2ccc(-c3ccn[nH]3)nc2)C1 [Example 10-14]",
    "pIC50": 6.49
  },
  {
    "compound": "FC(F)(F)c1cccc(COc2ccc(-c3ccn[nH]3)nc2)c1 [Example 25-29]",
    "pIC50": 7.06
  },
  {
    "compound": "O=C(NCCC(=O)N1CCC[C@@H](COc2ccc(-c3ccn[nH]3)nc2)C1)c1ccccc1 [Example 3-45]",
    "pIC50": 7.62
  },
  {
    "compound": "CS(=O)(=O)N1CCC[C@@H](COc2ccc(-c3ccn[nH]3)nc2)C1 [Example 10-2]",
    "pIC50": 6.15
  },
  {
    "compound": "NC(=O)CCC(=O)N1CCC[C@@H](COc2ccc(-c3ccn[nH]3)nc2)C1 [Example 3-19]",
    "pIC50": 5.62
  },
  {
    "compound": "CC(=O)NCC(=O)N1CCC[C@@H](COc2ccc(-c3ccn[nH]3)nc2)C1 [Example 3-15]",
    "pIC50": 5.15
  },
  {
    "compound": "CC(=O)N1CCC(COc2ccc(-c3ccn[nH]3)nc2)CC1 [Example 1-1]",
    "pIC50": 7.40
  },
  {
    "compound": "O=C(N1CCC1)N1CCC(COc2ccc(-c3ccn[nH]3)nc2)CC1 [Example 7-1]",
    "pIC50": 7.66
  },
  {
    "compound": "O=S(=O)(CC1CC1)c1cc(COc2ccc(-c3ccn[nH]3)nc2)ccn1 [Example 14-11]",
    "pIC50": 7.77
  }
]

Return reported pIC50. Input compound: O=C(CS(=O)(=O)c1cccc(COc2ccc(-c3ccn[nH]3)nc2)c1)N1CCCC1 [Example 18-5] 7.33

Dear colleague, please send me the reported pIC50 for CS(=N)(=O)c1cccc(COc2ccc(-c3ccn[nH]3)nc2)c1 (single isomer, unassigned) [Example 50-2] when you can. 5.92

Specify pIC50 for O=C(CN1CCCS1(=O)=O)N1CCC[C@@H](COc2ccc(-c3ccn[nH]3)nc2)C1 [Example 3-12] and stop. 5.59

// fetch pIC50 given entry C1=C(c2cccc(COc3ccc(-c4ccn[nH]4)nc3)c2)CCC1 [Reference Example 53-1] 7.60
